System: Plasmodium falciparum
TEST_DETAILS: Confirmatory screen in NF54 pLDH assay, in single point, at 2uM, 72h
Format: functional, Erythrocyte
CONDITION_DESCRIPTION: timepoint 72 hour
Screen size: about 4,800 compounds; about 410 (8.5%) showed an effect of 50% or more. The full list was thinned out, with strong results kept by preference.
Overview of reported % Inhibition across a group of compounds:
State the answer as a number, implicitly in %.

MOLECULAR_STRING	RECORDED_MEASUREMENT
O=C(Nc1ccc(N2CCCC2)c(F)c1)C(=O)Nc1ccon1	-13
Cc1cccc(NC(=O)Nc2cc(F)c3[nH]c(=O)ccc3c2)c1	-7
COc1cccc(CNCCCn2ccnc2)c1OCc1ccc(F)cc1	10
Cc1ccc(CNC(=O)[C@@H](C)C2CCOCC2)cc1C	7
C[C@H]1C[C@@H](O)CCN1C(=O)c1cccc2sc(C(F)(F)F)nc12	3

Tell me % Inhibition reported for CC(=O)Nc1cccc(NC(=O)Cn2c(=O)n(CCc3cccs3)c(=O)c3ccccc32)c1 10

Given COc1ccc(C)c2sc(N(CCCn3ccnc3)C(=O)Cc3ccc(F)cc3)nc12 , respond with its % Inhibition. 85

Item Cc1nnc2ccc(S(=O)(=O)N(Cc3ccc(F)cc3)c3cccc(Cl)c3)cn12 : provide % Inhibition 14

Give the value of % Inhibition reported for the following: CCCN1CCN(CCCNC(=O)c2ccc(Cl)c(-n3c(C)nc4cccnc43)c2)CC1 13

Look up and state reported % Inhibition for O=C(CNC(=O)c1ccc(C(F)(F)F)cc1)Nc1cnc2c(c1)COCC2 4

###

System: Plasmodium falciparum
TEST_DETAILS: Confirmatory screen in NF54 pLDH assay, in single point, at 2uM, 72h
Assay type: functional, Erythrocyte
CONDITION_DESCRIPTION: timepoint 72 hour
Among all 4,800 compounds or so, about 410 (8.5%) showed an effect of 50% or more. The sample holds strong results, similar compounds and a random draw of the others, so the mix is not that of the screen.
REPORTED_PROPERTY: % Inhibition (%)
State the answer as a number, implicitly in %.

Answered examples (5):
MOLECULAR_STRING	% Inhibition / %
COc1ccc(NC(=O)c2cc(C3CC3)nc3onc(C4CC4)c23)cc1Cl	-4
CCc1ccsc1CN=C(N)NC1CCCCC1	-9
O=C(COc1ccc(Cl)cc1)N[C@H](CO)CC1CCCC1	4
O=C(COc1ccc(Cl)cc1)N1CC(n2cnnc2C2CC2)C1	-4
CC[C@](O)(C(=O)N(C)Cc1ncon1)c1cccc(Cl)c1	-13

// moving on: another record for % Inhibition
Report % Inhibition, nothing else, for this compound: CC(=O)c1nc2cc(F)c(N3CCOCC3)cc2nc1C -13

###

Test system: Plasmodium falciparum
TEST_DETAILS: Confirmatory screen in NF54 pLDH assay, in single point, at 2uM, 72h
Assay type: functional, Erythrocyte
CONDITION_DESCRIPTION: timepoint 72 hour
The campaign covered roughly 4,800 compounds. About 410 (8.5%) showed an effect of 50% or more. The sample as a whole holds a higher share of strong results than the screen did.
REPORTED_PROPERTY: % Inhibition (%)
Form entry: value (%) — number only.

Here is how some compounds turned out for % Inhibition.
COMPOUND	VALUE_UNITS	% Inhibition
CC1CCC2C(CCC(C)N2C(=O)c2cc3nc4c(c(C(F)(F)F)n3n2)CCc2ccccc2-4)C1 (stereo not given)	%	1
COC(=O)c1ccc(Nc2nc(C)c3nc(C)n(-c4ccc(C(=O)OC)cc4)c3n2)cc1	%	3
Clc1cccc(CNCCCNc2ccncc2)c1Cl	%	95
OCCNCc1c(Cl)cccc1Cl	%	4

// fetch % Inhibition given entry Cc1nn(C)c(C)c1CNc1ccc2c(c1)CCC(=O)N2 -13

State its % Inhibition for this compound: COc1ccc(C2=NC3=S(N2c2ccccc2)N(C(C)=O)C(C(Cl)(Cl)Cl)N3c2ccccc2)cc1 (stereo not given) 13

Give % Inhibition for the following compound: Cc1c(NC(=O)N2CCC(C)C(n3ccnc3)C2)cccc1N(C)C (stereo not given) 7

Give % Inhibition for the following compound: Cc1noc([C@H]2CCCN(C(=O)c3cc4c(s3)CCC4)C2)n1 -5

Annotate the compound COCCN(Cc1c(-c2ccccc2)noc1N1CCN(C)CC1)C(=O)c1ccc(C)cc1 with its measured % Inhibition. 12

Tell me measured % Inhibition for CCC1C(C(=O)NCCN(C)CCOC)CCN1C(=O)OC(C)(C)C (stereo not given) please. 1

Please give measured % Inhibition of the following entry: O=C(Cn1cccn1)Nc1cccc(S(=O)(=O)N2CCCC2)c1 -8

Check the records and state % Inhibition for O=c1cc(N2CCN(C3CCCC3)CC2)cnn1Cc1ccccc1 -19

Return the recorded % Inhibition value; entry: Cc1ccc2c(c1)CCCN2S(=O)(=O)c1ccc2ccccc2c1 -7

Please list % Inhibition recorded for the compound O=C(Cn1cnc2ccc(Cl)cc2c1=O)NCc1ccc2c(c1)OCO2 -5

Please give measured % Inhibition of the following entry: COc1cc(OC)cc(C(=O)Nc2ccc3nc(N4CCC(C)CC4)cc(C)c3c2)c1 40

Name the recorded % Inhibition of the item CC(C)CCn1nnnc1[C@]1(N(C)C)CCCN(C(=O)c2cccn2C)C1 in your answer. -12

Respond only with % Inhibition recorded for CCn1cc(C(=O)Nc2n[nH]c3ccc(C(F)(F)F)cc23)cn1 -4

Data origin, for the record: ChEMBL document CHEMBL4888484
